Value source: patent US9695155B2

tested on: large (Lg) crabgrass; assay: Test A postemergence; format: in vivo, Digitaria sanguinalis; settings: 500 g ai/ha, 0 to 100 scale where 0 is no effect and 100 is complete control
Excerpt: […]
QUANTITY KIND: Plant response rating, Crabgrass, Large
One number for each entry.

In [3]: df
Out[3]:
                                   compound  readout_value
0  O=Cc1cccc(Oc2ncc(I)cn2)c1-n1cc(Br)cn1 [Compound 172]             30

Items follow; give Plant response rating, Crabgrass, Large for each.
1. COC(=O)c1cccc(Oc2ncc(Cl)cn2)c1-n1cc(Br)cn1 [Compound 211]
2. NN=Cc1cccc(Oc2ncc(Cl)cn2)c1-n1cc(Cl)cn1 [Compound 295]
3. O=Cc1cccc(Oc2ncc(Br)cn2)c1-n1cc(Cl)cn1 [Compound 206]

Given back:
[50, 0, 0]

Parameter requested: Plant response rating, Crabgrass, Large. Apply to each item below.
1. Fc1cccc(Oc2ncc(Cl)cn2)c1-n1cc(Cl)cn1 [Compound 177]
2. Fc1cnc(Oc2cccc(C(F)F)c2-n2cc(C(F)(F)F)cn2)nc1 [Compound 164]
3. O=Cc1cccc(Oc2ncc(Cl)cn2)c1-n1cc(I)cn1 [Compound 182]
4. Clc1cnc(Oc2ccccc2-n2cc(-c3ccccn3)cn2)nc1 [Compound 190]
5. FC(F)Oc1cnn(-c2ccccc2Oc2ncc(Cl)cn2)c1 [Compound 98]
6. N#Cc1cnn(-c2c(C#N)cccc2Oc2ncc(Cl)cn2)c1 [Compound 200]
7. N#Cc1cc(F)cc(Oc2ncc(Cl)cn2)c1-n1cc(Br)cn1 [Compound 238]

Given back:
[100, 100, 0, 50, 100, 90, 90]

Hi! Can you tell me Plant response rating, Crabgrass, Large for each of these compounds?
1. Clc1cnc(Oc2cccc(Br)c2-n2cc(Cl)cn2)nc1 [Compound 221]
2. Clc1cnc(Oc2cccc(Cl)c2-n2cc(I)cn2)nc1 [Compound 181]
3. O=Cc1cccc(Oc2ncc(Br)cn2)c1-n1cc(Br)cn1 [Compound 230]

Given back:
100
90
10

Working through the 2 compounds below one at a time, give Plant response rating, Crabgrass, Large for each.
1. N#Cc1cccc(Oc2ncc(Cl)cn2)c1-n1cc(OC(F)F)cn1 [Compound 97]
2. COc1cnc(Oc2ccccc2-n2cccn2)nc1 [Compound 227]

Given back:
[100, 10]

----------
tested on: corn; assay: Test C postemergence; type: in vivo, Zea mays; conditions: 16 g ai/ha, postemergence; 0 is no effect, 100 is complete control
QUANTITY KIND: Plant response rating (0 to 100), Corn
Give bare numbers.

Worked cases, Plant response rating (0 to 100), Corn given:
In [3]: df
Out[3]:
                                 molecule  readout_value
0   Clc1cnc(Oc2cccc(Cl)c2-n2cc(Cl)cn2)nc1              5
1        Clc1cnc(Oc2ccccc2-n2cc(I)nn2)nc1              5
2   Clc1cnc(Oc2cccc(Br)c2-n2cc(Cl)cn2)nc1              0
3  N#Cc1cnn(-c2c(Br)cccc2Oc2ncc(Cl)cn2)c1              0
4   O=Cc1cccc(Oc2ncc(I)cn2)c1-n1cc(Br)cn1              0
5    Clc1cnc(Oc2cccc(Cl)c2-n2cc(I)cn2)nc1              5

Let us examine a further case.
Asked: Plant response rating (0 to 100), Corn of FC(F)c1cccc(Oc2ncc(Br)cn2)c1-n1cc(C(F)(F)F)cn1 on corn?
Given back: 5
